Test: Distribution coefficient, logD of compound in n-Octanol/PBS at pH 7.4 incubated for 30 mins under shaking condition by UHPLC-MS analysis
Format: physicochemical
The entries below are paired with their reported logD at 0.5 h.
observation.type: logD at 0.5 h

* COc1cc(C(=O)NCCCCCCNC(=O)COc2c(-c3csc(N4CCOCC4)n3)ccc(F)c2F)ccc1NC(=O)[C@@H]1N[C@@H](CC(C)(C)C)[C@](C#N)(c2ccc(Cl)cc2F)[C@H]1c1cccc(Cl)c1F | 4
* Cc1sc2c(c1C)C(c1ccc(Cl)cc1)=N[C@@H](CC(=O)NCCCCCCCCNc1cccc3c1C(=O)N(C1CCC(=O)NC1=O)C3=O)c1nnc(C)n1-2 (stereo not given in full) | 5.5
* O=C(COc1c(-c2csc(N3CCOCC3)n2)ccc(F)c1F)NCCOCCOCCOCCOCCNc1cccc2c1C(=O)N(C1CCC(=O)NC1=O)C2=O (stereo not given) | 2.82
* Cc1ncsc1-c1ccc([C@H](C)NC(=O)[C@@H]2C[C@@H](O)CN2C(=O)[C@@H](NC(=O)COCCOCCNC(=O)COc2c(-c3csc(N4CCOCC4)n3)ccc(F)c2F)C(C)(C)C)cc1 | 3.94
* CCOC(=O)c1c(C)n(Cc2ccccc2)c2ccc(OCC(=O)NCCCC(=O)N[C@H](C(=O)N3C[C@H](O)C[C@H]3C(=O)N[C@@H](C)c3ccc(-c4scnc4C)cc3)C(C)(C)C)cc12 | 5.1

----------
Experiment: Kinetic solubility of the compound incubated for 60 mins under shaking condition by UV-Vis spectroscopic analysis
Assay type: physicochemical
Conditions: 1 h
Non-standard residues stand in square brackets, D forms with d. Residues, ends and D or L forms follow the SMILES beside them. *: point of attachment. X1 = Fc1ccc(-c2csc(N3CCOCC3)n2)c(OCCOCCOCCN*)c1F; Dip = N[C@H](C(=O)O)C(c1ccccc1)c1ccccc1; Chg = N[C@H](C(=O)O)C1CCCCC1; NMeA = CN[C@@H](C)C(=O)O
observation.type: log(Kinetic_solubility)

• Cc1ncsc1-c1ccc(CNC(=O)[C@@H]2C[C@@H](O)CN2C(=O)[C@@H](NC(=O)COCCOCCOCC(=O)N[C@H](C(=O)N2C[C@H](O)C[C@H]2C(=O)NCc2ccc(-c3scnc3C)cc2)C(C)(C)C)C(C)(C)C)cc1 = -3.93
• CC(=O)c1c(C)c2cnc(Nc3ccc(N4CCN(CCOCCOCCOCCNC(=O)COc5cccc6c5C(=O)N(C5CCC(=O)NC5=O)C6=O)CC4)cn3)nc2n(C2CCCC2)c1=O (stereo not given) = -4.72
• Cc1ncsc1-c1ccc([C@H](C)NC(=O)[C@@H]2C[C@@H](O)CN2C(=O)[C@@H](NC(=O)CCCCn2cc(COc3c(-c4csc(N5CCOCC5)n4)ccc(F)c3F)nn2)C(C)(C)C)cc1 = -5
• Cc1ncsc1-c1ccc([C@H](C)NC(=O)[C@@H]2C[C@H](O)CN2C(=O)[C@@H](NC(=O)COCCOCCOCC(=O)N[C@H](C(=O)N2C[C@@H](O)C[C@H]2C(=O)N[C@@H](C)c2ccc(-c3scnc3C)cc2)C(C)(C)C)C(C)(C)C)cc1 = -4.62
• Cc1ncsc1-c1ccc([C@H](C)NC(=O)[C@@H]2C[C@@H](O)CN2C(=O)[C@@H](NC(=O)CN2CCN(C(=O)C[C@@H]3N=C(c4ccc(Cl)cc4)c4c(sc(C)c4C)-n4c(C)nnc43)CC2)C(C)(C)C)cc1 = -4.79
• Cn1c(=O)n(C)c2cc(CNCCOCCOCCNCC3CCN(c4ccc(C(=O)N[C@H]5CC[C@H](Oc6ccc(C#N)c(Cl)c6)CC5)nn4)CC3)ccc21 = -3.07
• Cc1ncsc1-c1ccc([C@H](C)NC(=O)[C@@H]2C[C@@H](O)CN2C(=O)[C@@H](NC(=O)CNCCOCCOc2c(-c3csc(N4CCOCC4)n3)ccc(F)c2F)C(C)(C)C)cc1 = -4.82
• CN[C@@H](C)C(=O)N[C@H](C(=O)N1CCC[C@H]1C(=O)N[C@H](C(=O)NCCOCCOCCOc1c(-c2csc(N3CCOCC3)n2)ccc(F)c1F)C(c1ccccc1)c1ccccc1)C1CCCCC1 (H-[NMeA][Chg]P[Dip]-X1) = -4.49
• COc1ccc2c(c1)c(CC(=O)N1CCN(CCOCCOCC(=O)N[C@H](C(=O)N3C[C@H](O)C[C@H]3C(=O)N[C@@H](C)c3ccc(-c4scnc4C)cc3)C(C)(C)C)CC1)c(C)n2C(=O)c1ccc(Cl)cc1 = -5.11
• COc1ccc2c(c1)c(CC(=O)NCCN1CCN(CCOCCOCC(=O)N[C@H](C(=O)N3C[C@H](O)C[C@H]3C(=O)N[C@@H](C)c3ccc(-c4scnc4C)cc3)C(C)(C)C)CC1)c(C)n2C(=O)c1ccc(Cl)cc1 = -4.59

----------
Test: Kinetic solubility of the compound in PBS buffer at 50 mM pH 7.4 incubated for 60 mins under shaking condition by UHPLC-MS analysis
Format: physicochemical
Details: read-out: Kinetic_solubility
observation.type: solubility kinetic at 1 h (µM)

* Cc1ncsc1-c1ccc([C@H](C)NC(=O)[C@@H]2C[C@@H](O)CN2C(=O)[C@@H](NC(=O)CCCCNC(=O)COc2c(-c3csc(N4CCOCC4)n3)ccc(F)c2F)C(C)(C)C)cc1 | 17

----------
Assay: Kinetic solubility of the compound incubated for 60 mins under shaking condition by UHPLC-MS analysis
Assay type: physicochemical
Conditions: 1 h
The entries below are paired with their reported log(Kinetic_solubility).
observation.type: log(Kinetic_solubility)

• Cc1ncsc1-c1ccc([C@H](C)NC(=O)[C@@H]2C[C@@H](O)CN2C(=O)[C@@H](NC(=O)COCCOCCNC(=O)COc2c(-c3csc(N4CCOCC4)n3)ccc(F)c2F)C(C)(C)C)cc1 = -4.52
• Cc1ccc(-c2csc(N3CCOCC3)n2)c(OCC(=O)NCCCCC(=O)N[C@H](C(=O)N2C[C@H](O)C[C@H]2C(=O)N[C@@H](C)c2ccc(-c3scnc3C)cc2)C(C)(C)C)c1C = -5.05
• Cc1ncsc1-c1ccc([C@H](C)NC(=O)[C@@H]2C[C@@H](O)CN2C(=O)[C@@H](NC(=O)CN2CCN(C(=O)C[C@@H]3N=C(c4ccc(Cl)cc4)c4c(sc(C)c4C)-n4c(C)nnc43)CC2)C(C)(C)C)cc1 = -4.9
• Cc1ncsc1-c1ccc([C@H](C)NC(=O)[C@@H]2C[C@@H](O)CN2C(=O)[C@@H](NC(=O)CCCCn2cc(COc3c(-c4csc(N5CCOCC5)n4)ccc(F)c3F)nn2)C(C)(C)C)cc1 = -5.14
• Cc1ncsc1-c1ccc([C@H](C)NC(=O)[C@@H]2C[C@H](O)CN2C(=O)[C@@H](NC(=O)COCCOCCOCC(=O)N[C@H](C(=O)N2C[C@@H](O)C[C@H]2C(=O)N[C@@H](C)c2ccc(-c3scnc3C)cc2)C(C)(C)C)C(C)(C)C)cc1 = -4.66
• CC(=O)c1c(C)c2cnc(Nc3ccc(N4CCN(CCOCCOCCOCCNC(=O)COc5cccc6c5C(=O)N(C5CCC(=O)NC5=O)C6=O)CC4)cn3)nc2n(C2CCCC2)c1=O (stereo unspecified) = -5.05
• Cc1sc2c(c1C)C(c1ccc(Cl)cc1)=N[C@@H](CC(=O)NCCCN1CCN(CCCNc3cccc4c3C(=O)N(C3CCC(=O)NC3=O)C4=O)CC1)c1nnc(C)n1-2 (stereo partly specified) = -5.15
• COc1ccc2c(c1)c(CC(=O)NCCCCC(=O)N[C@H](C(=O)N1C[C@H](O)C[C@H]1C(=O)N[C@@H](C)c1ccc(-c3scnc3C)cc1)C(C)(C)C)c(C)n2C(=O)c1ccc(Cl)cc1 = -6.1
• CCOC(=O)c1c(C)n(Cc2ccccc2)c2ccc(OCC(=O)NCCCC(=O)N[C@H](C(=O)N3C[C@H](O)C[C@H]3C(=O)N[C@@H](C)c3ccc(-c4scnc4C)cc3)C(C)(C)C)cc12 = -6.23
• Cc1sc2c(c1C)C(c1ccc(Cl)cc1)=N[C@@H](CC(=O)NCCCCCCCCNc1cccc3c1C(=O)N(C1CCC(=O)NC1=O)C3=O)c1nnc(C)n1-2 (stereo partly specified) = -7.33
• O=C(CCCCCCCCCCC(=O)N1CCN(C(=O)c2cc(Cc3n[nH]c(=O)c4ccccc34)ccc2F)CC1)NCCNc1cccc2c1C(=O)N(C1CCC(=O)NC1=O)C2=O (stereo unspecified) = -6.13

----------
Experiment: Kinetic solubility of the compound incubated for 60 mins under shaking condition by UV-Vis spectroscopic analysis
Assay type: physicochemical
Details: 1 h
observation.type: log(Kinetic_solubility)

• Cc1ncsc1-c1ccc([C@H](CC(=O)NCCCCCCNC(=O)COc2c(-c3csc(N4CCOCC4)n3)ccc(F)c2F)NC(=O)[C@@H]2C[C@@H](O)CN2C(=O)[C@@H](NC(=O)C2(F)CC2)C(C)(C)C)cc1 = -5
• Cc1ccc(-c2csc(N3CCOCC3)n2)c(OCC(=O)NCCCCC(=O)N[C@H](C(=O)N2C[C@H](O)C[C@H]2C(=O)N[C@@H](C)c2ccc(-c3scnc3C)cc2)C(C)(C)C)c1C = -4.89
• Cc1ncsc1-c1ccc(CNC(=O)[C@@H]2C[C@@H](O)CN2C(=O)[C@@H](NC(=O)COCCOCCOCCOCCOCCOCC(=O)N[C@H](C(=O)N2C[C@H](O)C[C@H]2C(=O)NCc2ccc(-c3scnc3C)cc2)C(C)(C)C)C(C)(C)C)cc1 = -3.25
• COc1ccc2c(c1)c(CC(=O)NCCN1CCN(C(=O)CCC(=O)N[C@H](C(=O)N3C[C@H](O)C[C@H]3C(=O)N[C@@H](C)c3ccc(-c4scnc4C)cc3)C(C)(C)C)CC1)c(C)n2C(=O)c1ccc(Cl)cc1 = -5.22
• Cc1ncsc1-c1ccc([C@H](C)NC(=O)[C@@H]2C[C@@H](O)CN2C(=O)[C@@H](NC(=O)CCCCn2cc(CCCC(=O)N3CCN(C(=O)c4cc(Cc5n[nH]c(=O)c6ccccc56)ccc4F)CC3)nn2)C(C)(C)C)cc1 = -4.37
